These entries and their values trace back to the supplement of paper PMC10065799.

measured-on: EPHB2 (UniProt P29323)
Sequence (P29323 whole entry, looked up): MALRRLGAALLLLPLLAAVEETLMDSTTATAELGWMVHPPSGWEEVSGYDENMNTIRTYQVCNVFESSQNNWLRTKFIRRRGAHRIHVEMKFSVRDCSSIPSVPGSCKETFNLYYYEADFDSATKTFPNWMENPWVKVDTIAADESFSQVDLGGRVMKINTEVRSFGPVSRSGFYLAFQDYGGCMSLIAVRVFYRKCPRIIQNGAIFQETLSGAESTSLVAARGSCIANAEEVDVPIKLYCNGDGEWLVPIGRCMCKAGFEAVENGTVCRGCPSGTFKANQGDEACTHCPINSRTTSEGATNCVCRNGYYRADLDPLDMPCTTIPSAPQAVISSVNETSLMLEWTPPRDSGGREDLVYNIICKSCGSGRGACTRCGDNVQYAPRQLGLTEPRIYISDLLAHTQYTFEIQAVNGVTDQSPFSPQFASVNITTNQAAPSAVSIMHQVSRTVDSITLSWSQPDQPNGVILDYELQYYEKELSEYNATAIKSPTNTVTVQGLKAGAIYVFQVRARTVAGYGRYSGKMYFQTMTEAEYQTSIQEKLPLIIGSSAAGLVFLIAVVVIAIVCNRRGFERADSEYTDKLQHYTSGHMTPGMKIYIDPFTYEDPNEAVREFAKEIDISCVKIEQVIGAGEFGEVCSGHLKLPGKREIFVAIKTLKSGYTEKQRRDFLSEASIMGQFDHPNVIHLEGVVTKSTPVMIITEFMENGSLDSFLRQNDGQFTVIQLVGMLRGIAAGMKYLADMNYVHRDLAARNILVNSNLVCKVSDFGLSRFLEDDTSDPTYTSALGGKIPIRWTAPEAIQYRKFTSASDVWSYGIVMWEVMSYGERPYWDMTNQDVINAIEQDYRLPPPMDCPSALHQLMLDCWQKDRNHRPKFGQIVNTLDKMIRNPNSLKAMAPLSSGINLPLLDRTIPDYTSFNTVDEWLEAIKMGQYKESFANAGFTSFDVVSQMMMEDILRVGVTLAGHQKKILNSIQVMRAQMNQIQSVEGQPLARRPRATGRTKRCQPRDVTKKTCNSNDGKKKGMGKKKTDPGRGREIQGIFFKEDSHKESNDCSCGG
assay-notes: phosphorylation enrichment, bacterial display (enrichment ratio); higher = better substrate or ligand; peptides without Tyr show the background;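 further: 11-residue human phosphosite peptides and single-mutation variants displayed on the E. coli surface, counted by deep sequencing, each peptide's frequency after selection divided by its frequency in the unselected input library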;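 further: frequency after pTyr selection over input frequency; kinase dosed for 20-30% of maximal phosphorylation in three min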
Reported values of phosphorylation enrichment for individual entries

Entry EFGFRYELVQY [UGGT2_Y1289_Y1285F] — recorded phosphorylation enrichment = 0.507

Memo: GGPTYYIDTNA [ACTL6A_Y69] , reported phosphorylation enrichment: 0.514

# phosphorylation enrichment (sequence: VHSGTYQVTVR [MYBPC3_Y1043] ) is 0.489

// field: phosphorylation enrichment; key: PLRADYLIARV [HLCS_Y635] ; value = 0.487

What the record says about SSEFHCVGGFF [CTSC_Y347_Y347C_YF] : phosphorylation enrichment is 0.5

The value of phosphorylation enrichment measured for the sequence FSNPAYYVLEG [INPPL1_Y986_N982S] turned out to be 0.509

----------
measured-on: EPHB1 (UniProt P54762)
Sequence (P54762 whole entry, looked up): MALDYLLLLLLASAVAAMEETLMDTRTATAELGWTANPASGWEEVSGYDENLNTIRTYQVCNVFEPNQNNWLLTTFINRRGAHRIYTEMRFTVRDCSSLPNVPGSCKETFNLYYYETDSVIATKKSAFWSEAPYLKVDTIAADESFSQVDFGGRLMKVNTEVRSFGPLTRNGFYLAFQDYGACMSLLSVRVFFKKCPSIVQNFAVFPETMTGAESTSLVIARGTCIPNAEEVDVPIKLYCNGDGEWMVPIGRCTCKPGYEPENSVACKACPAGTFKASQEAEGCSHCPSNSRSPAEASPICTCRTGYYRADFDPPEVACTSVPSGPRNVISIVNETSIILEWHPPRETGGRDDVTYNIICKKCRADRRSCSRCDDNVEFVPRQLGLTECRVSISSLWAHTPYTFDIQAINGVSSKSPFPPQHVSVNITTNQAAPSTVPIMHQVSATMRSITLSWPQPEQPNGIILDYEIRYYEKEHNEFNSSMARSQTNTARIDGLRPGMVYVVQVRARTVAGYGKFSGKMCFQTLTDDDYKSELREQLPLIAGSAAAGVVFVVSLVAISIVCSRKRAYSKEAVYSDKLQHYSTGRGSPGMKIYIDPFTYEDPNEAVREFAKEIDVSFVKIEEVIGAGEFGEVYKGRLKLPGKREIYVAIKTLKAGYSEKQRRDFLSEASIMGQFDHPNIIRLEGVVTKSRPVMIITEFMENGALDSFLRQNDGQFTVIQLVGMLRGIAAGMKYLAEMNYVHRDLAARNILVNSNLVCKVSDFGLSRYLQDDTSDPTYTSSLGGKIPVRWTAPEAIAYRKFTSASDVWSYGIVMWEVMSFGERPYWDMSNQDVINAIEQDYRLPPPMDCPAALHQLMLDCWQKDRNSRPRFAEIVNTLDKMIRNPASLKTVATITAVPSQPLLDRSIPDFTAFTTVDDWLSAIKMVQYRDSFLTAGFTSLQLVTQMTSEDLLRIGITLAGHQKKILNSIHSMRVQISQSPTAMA
assay-notes: phosphorylation enrichment, bacterial display (enrichment ratio); higher = better substrate or ligand; peptides without Tyr show the background
# phosphorylation enrichment per record follows
Just the number.

Reference set (6 entries):
# biosequence, phosphorylation enrichment
rows = [
    ("HYPDVYAWEQL [ALX3_Y181_R183W]", 0.913),
    ("MACDRYVAICS [OR8D4_Y123]", 0.508),
    ("EATKGHLDDPT [G6PD_Y322_Y322H]", 0.643),
    ("FQNGMYGLHQD [SGSH_Y89_H84Y_YF]", 0.437),
    ("SKAFAYVHFDS [PABPC5_Y149_G146A_YF]", 0.447),
    ("FGCGMYSHLQG [LGR4_Y848_D844G_YF]", 0.879),
]

Now consider the entry below.
Briefly, phosphorylation enrichment measured for EYFENYIEELK [PARP4_Y218] : 0.73

----------
measured-on: Jak2 (UniProt O60674)
Sequence (O60674 whole entry, looked up): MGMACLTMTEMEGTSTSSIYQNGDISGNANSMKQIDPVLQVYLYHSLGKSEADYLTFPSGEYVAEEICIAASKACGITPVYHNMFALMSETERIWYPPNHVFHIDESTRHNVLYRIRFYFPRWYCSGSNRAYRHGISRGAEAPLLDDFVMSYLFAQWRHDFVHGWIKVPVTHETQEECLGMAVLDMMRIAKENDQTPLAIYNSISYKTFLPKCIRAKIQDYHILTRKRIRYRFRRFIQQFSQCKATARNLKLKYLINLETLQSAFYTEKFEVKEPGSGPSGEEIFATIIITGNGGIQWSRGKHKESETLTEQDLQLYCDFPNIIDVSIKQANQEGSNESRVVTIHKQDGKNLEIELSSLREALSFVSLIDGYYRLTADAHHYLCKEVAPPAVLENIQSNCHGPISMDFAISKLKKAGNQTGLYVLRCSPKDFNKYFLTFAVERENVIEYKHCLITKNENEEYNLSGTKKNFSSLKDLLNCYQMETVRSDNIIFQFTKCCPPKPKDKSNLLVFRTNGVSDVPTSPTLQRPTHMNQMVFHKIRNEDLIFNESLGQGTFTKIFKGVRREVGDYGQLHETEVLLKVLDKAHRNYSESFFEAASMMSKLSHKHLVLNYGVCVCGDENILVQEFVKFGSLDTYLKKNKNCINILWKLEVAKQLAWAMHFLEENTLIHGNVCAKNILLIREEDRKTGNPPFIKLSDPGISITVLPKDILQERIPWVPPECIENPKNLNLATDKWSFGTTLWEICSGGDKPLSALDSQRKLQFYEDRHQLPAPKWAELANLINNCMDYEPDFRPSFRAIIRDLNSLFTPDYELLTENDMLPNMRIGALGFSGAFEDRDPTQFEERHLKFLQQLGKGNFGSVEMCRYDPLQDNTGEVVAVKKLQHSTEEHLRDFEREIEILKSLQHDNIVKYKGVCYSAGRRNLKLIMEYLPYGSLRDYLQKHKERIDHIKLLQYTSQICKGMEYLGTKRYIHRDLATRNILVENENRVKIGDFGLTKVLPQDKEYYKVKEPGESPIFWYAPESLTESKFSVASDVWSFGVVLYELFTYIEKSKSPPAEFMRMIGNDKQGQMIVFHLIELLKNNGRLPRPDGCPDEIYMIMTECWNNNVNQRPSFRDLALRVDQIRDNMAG
assay-notes: phosphorylation enrichment, bacterial display (enrichment ratio); higher = better substrate or ligand; peptides without Tyr show the background
phosphorylation enrichment by entry:
Reply briefly: the number, and no unit.

# biosequence, result
measured = [
    ("LTDLRYKVSGP", 0.687),
    ("SSFDTYHLSRE [KIR3DL2_Y253_I252T_YF]", 0.7),
]

Consider now this further sequence.
Record summary for EWLRRYLKNGK [HLA-C_Y195_E197K] : reported phosphorylation enrichment = 0.679

----------
measured-on: Fyn (UniProt P06241)
Sequence (P06241 whole entry, looked up): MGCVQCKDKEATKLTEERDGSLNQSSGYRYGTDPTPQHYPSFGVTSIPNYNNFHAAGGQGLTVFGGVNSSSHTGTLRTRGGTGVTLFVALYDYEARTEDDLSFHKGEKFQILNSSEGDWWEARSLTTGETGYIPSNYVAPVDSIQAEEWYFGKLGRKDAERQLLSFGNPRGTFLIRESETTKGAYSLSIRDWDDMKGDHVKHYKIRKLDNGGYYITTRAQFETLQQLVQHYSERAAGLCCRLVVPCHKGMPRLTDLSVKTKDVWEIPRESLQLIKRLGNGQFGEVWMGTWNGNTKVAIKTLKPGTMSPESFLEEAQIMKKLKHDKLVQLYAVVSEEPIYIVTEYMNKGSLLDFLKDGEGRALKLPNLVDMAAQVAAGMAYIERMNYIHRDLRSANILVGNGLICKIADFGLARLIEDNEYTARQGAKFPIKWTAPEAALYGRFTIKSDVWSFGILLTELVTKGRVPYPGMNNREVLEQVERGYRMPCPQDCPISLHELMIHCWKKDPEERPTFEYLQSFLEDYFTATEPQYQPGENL
assay-notes: phosphorylation enrichment, bacterial display (enrichment ratio); higher = better substrate or ligand; peptides without Tyr show the background
endpoint-label: phosphorylation enrichment
API doc: respond with a numeric literal and nothing else, no unit.

# biosequence, measured-on, result
data = [
    ("MWGSDYVHLSR [MAP3K4_Y582_Q584H]", "Fyn (UniProt P06241)", 0.472),
    ("DRLASYLDKVR [KRT10_Y160]", "Fyn (UniProt P06241)", 0.378),
    ("QGIIIYRAAYF [SLC25A4_Y187]", "Fyn (UniProt P06241)", 0.574),
    ("AVAFLYYKSIG [ADGRL4_Y301_V300L]", "Fyn (UniProt P06241)", 0.417),
    ("VQQVIYATRAL [MYH7_Y422_G425R]", "Fyn (UniProt P06241)", 9.04),
]

Lab note: measured phosphorylation enrichment of DKATEYIQYMR [MAX_Y70] was 0.624

What the record says about SARHHYESLQT [BIN1_Y157] : phosphorylation enrichment is 0.36

So for GDFFCYLAEVA [YWHAG_Y133_R132C_YF] , the logged phosphorylation enrichment turned out to be 0.702

Value of measured phosphorylation enrichment for the entry ALWYIYSHTRS [ENG_Y614] : 0.47
